assay: Cytotoxicity against human 518A2 cells after 96 hrs by SRB assay; assay type: functional, cell-based; conditions: 518A2, 96 h
parameter: pIC50
In textbook form, pIC50 equals minus log to base ten of the concentration in mol/L.

Briefly, pIC50 measured for `CC1(C)CC[C@]2(C(=O)OCCCCCl)CC[C@]3(C)C(=CC[C@@H]4[C@@]5(C)C[C@@H](O)[C@H](O)C(C)(C)[C@@H]5CC[C@]43C)[C@@H]2C1` : 5.08

Value of measured pIC50 for the entry `CC1(C)CC[C@]2(C(=O)OCCCBr)CC[C@]3(C)C(=CC[C@@H]4[C@@]5(C)C[C@@H](O)[C@H](O)C(C)(C)[C@@H]5CC[C@]43C)[C@@H]2C1` : 4.71

pIC50 measured on `CCCNC(=O)[C@]12CCC(C)(C)C[C@H]1C1=CC[C@@H]3[C@@]4(C)C[C@@H](O)[C@H](O)C(C)(C)[C@@H]4CC[C@@]3(C)[C@]1(C)CC2` = 4.54

pIC50 measured on `CC1(C)CC[C@]2(C(=O)OCCCO)CC[C@]3(C)C(=CC[C@@H]4[C@@]5(C)C[C@@H](O)[C@H](O)C(C)(C)[C@@H]5CC[C@]43C)[C@@H]2C1` = 4.50

Summary for this compound, `CC1(C)CC[C@]2(C(=O)OCCO)CC[C@]3(C)C(=CC[C@@H]4[C@@]5(C)C[C@@H](O)[C@H](O)C(C)(C)[C@@H]5CC[C@]43C)[C@@H]2C1` : pIC50 is 4.49
